Origin of values: the supplement of paper PMC9023506

Exercise: for every item that follows, state its recorded habituation to 1-s acoustic pulses.
# System: Danio rerio larvae (5 dpf)
# protocol-notes: habituation to 1-s acoustic pulses, difference vs DMSO (percentage points (treated minus DMSO)); higher = more of the behaviour than the DMSO vehicle control
# test-parameters: 10 µM; exposure time: 3 h pre-incubation + 3 h imaging
Counter-ions that a name gives are not always drawn.
Write the number on its own, no unit after it.

Enter reported habituation to 1-s acoustic pulses observed with Danio rerio larvae (5 dpf) for CN(CCOc1ccc(CC2SC(=O)NC2=O)cc1)c1ccccn1 (centres undefined)
0.476

Note, next up: CCCc1nc2c(C)cc(-c3nc4ccccc4n3C)cc2n1Cc1ccc(-c2ccccc2C(=O)O)cc1
-0.195

Note, next up: C[C@@H]1C[C@H]2[C@@H]3CCC4=CC(=O)C=C[C@]4(C)[C@@]3(F)[C@@H](O)C[C@]2(C)[C@@]1(O)C(=O)CO
2.44

Note, next up: CC1(C)O[C@@H]2[C@@H](CO[C@@]3(COS(N)(=O)=O)OC(C)(C)O[C@@H]23)O1 [Topiramate]
-3.26

Note, next up: CC(C)CN(C[C@@H](O)[C@H](Cc1ccccc1)NC(=O)O[C@H]1CO[C@H]2OCC[C@H]21)S(=O)(=O)c1ccc(N)cc1
-1.13

Note, next up: OCCOCCN1CCN(C2=Nc3ccccc3Sc3ccccc32)CC1 [Quetiapine hemifumarate]
-4.36

Note, next up: COCCc1ccc(OCC(O)CNC(C)C)cc1 (centres undefined) [Metoprolol tartrate]
-3.95

Note, next up: CC(C)C(=O)Nc1ccc([N+](=O)[O-])c(C(F)(F)F)c1 [Flutamide]
-15.5

Note, next up: Cc1c(-c2ccc(O)cc2)n(Cc2ccc(OCCN3CCCCCC3)cc2)c2ccc(O)cc12 [Bazedoxifene acetate]
0.273

Note, next up: NS(=O)(=O)c1cc(C(=O)O)c(NCc2ccco2)cc1Cl [Furosemide]
1.08

Note, next up: CCOc1nc2cccc(C(=O)O)c2n1Cc1ccc(-c2ccccc2-c2nnn[nH]2)cc1
4.86

Note, next up: CCOC(=O)c1ncn2c1CN(C)C(=O)c1cc(F)ccc1-2
-2.91

Note, next up: CC#C[C@]1(O)CC[C@H]2[C@@H]3CCC4=CC(=O)CCC4=C3[C@@H](c3ccc(N(C)C)cc3)C[C@@]21C
-0.152

Note, next up: CCC(=O)O[C@]1(C(=O)SCF)[C@H](C)C[C@H]2[C@@H]3C[C@H](F)C4=CC(=O)C=C[C@]4(C)[C@@]3(F)[C@@H](O)C[C@@]21C [Fluticasone propionate]
3.04

Note, next up: Cc1ccsc1C(=CCCN1CCC[C@@H](C(=O)O)C1)c1sccc1C [Tiagabine hydrochloride]
6.27

Note, next up: CN1CCN2c3ncccc3Cc3ccccc3C2C1 (centres undefined)
-2.79

Note, next up: NC(=O)N1c2ccccc2C=Cc2ccccc21 [Carbamazepine]
2.65

Note, next up: N#Cc1ccc(C(c2ccc(C#N)cc2)n2cncn2)cc1
2.44

Note, next up: CC(=O)Nc1ccc(O)cc1
-1.9

Note, next up: COc1ccc(Cl)cc1C(=O)NCCc1ccc(S(=O)(=O)NC(=O)NC2CCCCC2)cc1 [Glibenclamide]
-1.87

Note, next up: COc1ccc(-c2ccc3cc(C(=O)O)ccc3c2)cc1C12CC3CC(CC(C3)C1)C2
2.52

Note, next up: CC/C(=C(\c1ccccc1)c1ccc(OCCN(C)C)cc1)c1ccccc1 [Tamoxifen citrate]
-6.99

Note, next up: CN/C(=N\CCSCc1nc[nH]c1C)NC#N
5.48

Note, next up: CCCCCCCN(CC)CCCC(O)c1ccc(NS(C)(=O)=O)cc1 (centres undefined) [Ibutilide hemifumarate]
2.78
